Reference source for all entries: the supplement of paper PMC10338343

# Test system: MILI (PIWIL2) piRISC loaded with L1MC piRNA (26 nt);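 further: 1 nM active piRISC with 0.1 nM target library at 33 °C single turnover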
# experiment description: pre-steady-state target cleavage rate (min^-1); guide: L1MC piRNA 5'p-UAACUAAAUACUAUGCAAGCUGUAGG; MIWI and MILI are mouse PIWI proteins and EfPiwi is from a freshwater sponge; tags in brackets are library labels; higher = faster piRNA-guided slicing of the target
# test context: auxiliary factor: 500 nM mouse GTSF1
Is pre-steady-state target cleavage rate at least 0.04? Then fulfilled. If not, not fulfilled.

UCCUGGUACAGCUUGCAUGUAUUUAGUUA :: not fulfilled
UCCUGGAUGAGGUUGCAUACUAUUUAGUUA :: not fulfilled
UCCUGGAUGUCGAACCAAAGUAUUUUGUUA :: not fulfilled
UCCUGCUACAGCUUAGCAUAGUAUUUAGUUA :: fulfilled
UCCUGGAUGUCCUUGCAUAGUAUUUACGUUA :: fulfilled

q: Decide: pre-steady-state target cleavage rate of UCCUGGAUCAGCUUGCAUAGUAUAUUCAAA >= 0.04?
a: fulfilled
